Biological target: T1, human KDR1 to 3 domain (human, UniProt P35968 20-327, limits assumed)
T1 construct: domain: KDR1 to 3 domain; The panning antigen was KDR1 to 3 domain-Fc; Treated as one molecule; also called KDR1 to 3 domains; KDR D1 to D3
T1 sequence (P35968 20-327 limits assumed): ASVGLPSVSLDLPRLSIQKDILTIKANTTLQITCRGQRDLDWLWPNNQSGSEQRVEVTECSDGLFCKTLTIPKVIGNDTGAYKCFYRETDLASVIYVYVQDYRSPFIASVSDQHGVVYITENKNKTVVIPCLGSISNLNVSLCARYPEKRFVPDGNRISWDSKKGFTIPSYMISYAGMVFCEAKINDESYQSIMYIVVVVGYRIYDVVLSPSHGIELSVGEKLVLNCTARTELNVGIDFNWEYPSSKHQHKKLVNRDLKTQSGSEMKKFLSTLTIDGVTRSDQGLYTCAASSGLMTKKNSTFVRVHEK
Assay: BLI (Octet), KDR1 to 3 domains on biosensor, scFv added, off-rate screening
A collection of binders and their measured koff

binder	units_of_measure	koff
D3 (scFv) (scFv, part only; not given: scFv linker, domain order, tags, V domains shown, not shown: another chain or arm of the molecule; small tags and cut ends) VH: EVQLVESGGGLVQPGGSLRLSCAASGYTFSSYWMSWVRQAPGKGLEWVSEINPGNGHTNYNEKFKSRFTISRDKSKNTLYLQMNSLRAEDTAVYYCARHWGPSLTSPFDYWGQGTLVTVSS VL: DIQMTQSPSSLSASVGDRVTITCRADNLGDVNVHWYQQKPGKAPKLLIYYDADRPSGVPSRFSGSNSGNDATLTISSLQPEDFATYYCQAPTKNVPYTFGQGTKVEIK	s⁻¹	0.00015
A5 (scFv) (scFv, part only; not given: scFv linker, domain order, tags, V domains shown, not shown: another chain or arm of the molecule; small tags and cut ends) VH: EVQLVESGGGLVQPGGSLRLSCAASGYTFSSYWMSWVRQAPGKGLEWVSEINPGNGHTNYNEKFKSRFTISRDKSKNTLYLQMNSLRAEDTAVYYCARHWGPSLTSPFDYWGQGTLVTVSS VL: DIQMTQSPSSLSASVGDRVTITCRADNLGDVNVHWYQQKPGKAPKLLIYYDADRPSGVPSRFSGSNSGNDATLTISSLQPEDFATYYCQAPTTHLPYTFGQGTKVEIK	s⁻¹	0.000187
D4 (scFv) (scFv, part only; not given: scFv linker, domain order, tags, V domains shown, not shown: another chain or arm of the molecule; small tags and cut ends) VH: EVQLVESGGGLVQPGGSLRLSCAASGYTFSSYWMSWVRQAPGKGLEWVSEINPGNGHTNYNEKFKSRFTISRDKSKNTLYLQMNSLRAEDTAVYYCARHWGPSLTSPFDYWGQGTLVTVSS VL: DIQMTQSPSSLSASVGDRVTITCRADNLGDVNVHWYQQKPGKAPKLLIYYDADRPSGVPSRFSGSNSGNDATLTISSLQPEDFATYYCQAPTNNDPYTFGQGTKVEIK	s⁻¹	0.000165
LHL-G1 (scFv) (scFv, V domains shown) VH: EVQLVESGGGLVQPGGSLRLSCAASGYTFSSYWMSWVRQAPGKGLEWVSEINPGNGHTNYNEKFKSRFTISRDKSKNTLYLQMNSLRAEDTAVYYCARSYRPSLTSPFDFWGQGTLVTVSS VL: DIQMTQSPSSLSASVGDRVTITCRADNLGDVNVHWYQQKPGKAPKLLIYYDADRPSGVPSRFSGSNSGNDATLTISSLQPEDFATYYCQAPTTNEPYTFGQGTKVEIKR	s⁻¹	0.000239
